Test: Cytotoxicity against human A875 cells assessed as growth inhibition after 72 hrs by MTT assay
Assay type: functional, cell-based
Settings: A875, 72 h
pIC50: −log10 of the molar value.
# pIC50 annotations

line-notation	relation-qualifier	pIC50
C[C@]12CC[C@H](O)CC1=CC[C@@H]1[C@@H]2CC[C@]2(C)/C(=N/N=C3\C(=O)Nc4ccc(I)cc43)CC[C@@H]12	=	4.36
C[C@]12CC[C@H](O)CC1=CC[C@@H]1[C@@H]2CC[C@]2(C)/C(=N/N=C3\C(=O)Nc4cc(F)ccc43)CC[C@@H]12	=	4.53
C[C@]12CC[C@H](O)CC1=CC[C@@H]1[C@@H]2CC[C@]2(C)/C(=N/N=C3\C(=O)Nc4ccc(Br)cc43)CC[C@@H]12	=	4.83
O=c1[nH]cc(F)c(=O)[nH]1	<	3.82
C[C@]12CC[C@H](O)CC1=CC[C@@H]1[C@@H]2CC[C@]2(C)/C(=N/N=C3\C(=O)Nc4ccc([N+](=O)[O-])cc43)CC[C@@H]12	=	4.16
C[C@]12CC[C@H](O)CC1=CC[C@@H]1[C@@H]2CC[C@]2(C)/C(=N/c3ccccc3)CC[C@@H]12	=	4.08
C[C@]12CC[C@H](O)CC1=CC[C@@H]1[C@@H]2CC[C@]2(C)/C(=N/Cc3ccccc3)CC[C@@H]12	=	4.37

Source of measurements: ChEMBL document CHEMBL3616421
